- Test Details: folding stability dG unfold (combined trypsin and chymotrypsin); higher = more stable
Think of 2 kcal/mol as a floor: if folding stability dG unfold stands on it or above, it is Fulfilled; beneath it, Not fulfilled.

Some solved cases for reference:
[
  {
    "Sequence Data": "SAGGAMPKTITVTDPTSSREEAEALLASPERLEAIAEEIKPEFPGVDLTVTVSSDPATGTLTITIVSSAGGS [r16_320_JUSTAS]",
    "Label Class": "Not fulfilled"
  },
  {
    "Sequence Data": "SAGGSAGGSAGGEWRTLYIPIPGMPPEFIETFALELLDDGAKVEDIEWNPNNGYLMITVRSAGGSAGGSAGG [r7_906_TrROS]",
    "Label Class": "Not fulfilled"
  },
  {
    "Sequence Data": "SAGMLEISSDVLKALGIPVGATAEEVKERIQRRLEELGFEVEIPSVVIEELDPETGRVGVRIDLDLRPPSAG [r5_23_TrMRF]",
    "Label Class": "Fulfilled"
  },
  {
    "Sequence Data": "NPGKPLEIDIEVDIFEFPGGKFAIITFPIRLPGNGYWVQIEFWINPDGGLVMKIDVYDPGNGKPEEITIPIS [r1_261_TrROS]",
    "Label Class": "Fulfilled"
  },
  {
    "Sequence Data": "SAGGSAGGVKEALEELLKKLKPGEKKTITLEIEVDGKLVKIEIEVLPDGEIKITKIEEIPKEDLSAGGSAGG [r6_87_TrROS_Hall]",
    "Label Class": "Fulfilled"
  }
]

Ask: Threshold query (folding stability dG unfold >= 2 kcal/mol) on SAGGSAGMDPSKVSLSISTKTYTDTATGRKVEELYFEGSGKKVTVTTLPDGTKIVTYENGVVIEVESAGGSA [r15_617_JUSTAS]
Reply: Not fulfilled

Ask: Threshold query (folding stability dG unfold >= 2 kcal/mol) on SAGGSAGGMEKYKVTITIERPDPNNPDVKTTEVTEVVLTPEEIEKLKKELAPTGYRVEITVIDESAGGSAGG [r6_857_JUSTAS]
Reply: Fulfilled

* * *

- Test Details: folding stability dG unfold (combined trypsin and chymotrypsin); higher = more stable
Measured Attribute: folding stability dG unfold (kcal/mol)
Numeric answer only, unit kcal/mol assumed.

Example entries and their recorded answers appear below.
[
  {
    "Sequence Data": "SAMKLPKDVEIKEIKFDPEKTVTIKIKVKKYDFFIYDPETGKVIVIKPGEEKEITLPANIPLLIFAIKPSAG [r14_385_TrMRF]",
    "Measured Attribute": "folding stability dG unfold",
    "Measurement Unit": "kcal/mol",
    "Recorded Value": 2.16
  },
  {
    "Sequence Data": "SAGGSAGGSGMEKKTITITIPVPPDRDVTEEEIKETLKPLGYEEVDIEEIKPAGNSYTVTAVISAGGSAGGS [r20_79_JUSTAS]",
    "Measured Attribute": "folding stability dG unfold",
    "Measurement Unit": "kcal/mol",
    "Recorded Value": -0.427
  }
]

Next sequence, folding stability dG unfold to be filled in.
Ask: Entry SAPKIEILEVDPNRVLIKIDATPEEIEKIVEEIKKKFPGVKVETEKLEGEKKYLIKVIPVPEVPEELKKSAG [r14_600_TrMRF] needs its folding stability dG unfold filled in; supply it.
Reply: 1.1

* * *

- Test Details: folding stability dG unfold from chymotrypsin proteolysis; higher = more stable
Overview of recorded folding stability dG unfold for various sequences
Numeric answer only, unit kcal/mol assumed.

[
  {
    "Sequence Data": "SAGSALAAALKLKTYTIKITAPDGTVIELTISYHPSDPEAIKEALAKAGYPPEKLKTENPNLETTEVDASAG [r5_430_JUSTAS]",
    "folding stability dG unfold / kcal/mol": 1.83
  },
  {
    "Sequence Data": "SAGGSMAKILEIIPEEKKIVVEFEGDPKTFPLDEIEEIRIEPEKGYLTIKVGDKVYTIPLDDPNDFSAGGSA [r2_48_TrMRF]",
    "folding stability dG unfold / kcal/mol": 2.25
  },
  {
    "Sequence Data": "SAGGAMVPVNFTLKFTYTNPDGTPVFREKPVTLPFPESDPAAAEAAARARAEAEAAARGVEVDLEVSLSAGG [r13_853_JUSTAS]",
    "folding stability dG unfold / kcal/mol": 0.219
  },
  {
    "Sequence Data": "SAGGSAKILEEALEALKKAKPGEEVEIEIEIEVNGKKYRIKVKVTYDEETGKITIEIVEIEELPEESAGGSA [r15_724_TrROS_Hall]",
    "folding stability dG unfold / kcal/mol": 4.11
  }
]

Next sequence, folding stability dG unfold to be filled in.
Ask: Entry SAAKIYILPGNNVILVRPPLPNGPFGELVIPTKPSELENPEFLKEIVDEIRKAGIPFEATILPPGVPPESAG [r14_60_TrMRF] needs its folding stability dG unfold filled in; supply it.
Reply: 1.34

* * *

- Test Details: folding stability dG unfold (combined trypsin and chymotrypsin); higher = more stable
Each entry falls in a class defined on folding stability dG unfold; the bands are LOW (below 1 kcal/mol), MID (1 kcal/mol to below 3 kcal/mol), HIGH (3 kcal/mol or more)

[
  {
    "Sequence Data": "SAGGLIEAIKEAIDQAPPGDEEVTIPIRFPNGTFVIEIRREKDKYKIEIEMQNPNGQKQEITITIEVSAGGS [r16_642_TrROS]",
    "Label Class": "MID"
  }
]

Ask: Where would SAGGEKIEELLKELLEKLEIKPGEKVEIEIEFELEDGYRIKLKITVTYNEETGEVEIKVEIVEIEKVSAGGS [r16_634_TrROS_Hall] land among the classes by reported folding stability dG unfold?
Reply: HIGH

* * *

- Test Details: folding stability dG unfold (combined trypsin and chymotrypsin); higher = more stable
Overview of recorded folding stability dG unfold for various sequences
Numeric answer only, unit kcal/mol assumed.

[
  {
    "Sequence Data": "SAGGSAGGSASMKVLEFPPDASIEEILEKIEKELGLSKEEIKNIKIEKIDDEEGSYKVIIESAGGSAGGSAG [r3_26_JUSTAS]",
    "Measurement Unit": "kcal/mol",
    "folding stability dG unfold": 2.59
  },
  {
    "Sequence Data": "SAGGSAGGSAGGKKITIVMSAEEAEALAKALEDAGIDIDNLKIEVVKVEFPPALPAEDKSAGGSAGGSAGGS [r10_602_TrROS_Hall]",
    "Measurement Unit": "kcal/mol",
    "folding stability dG unfold": 1.57
  },
  {
    "Sequence Data": "SAGMPVTVTSTSDPENGSTTVPRTHPTGPVVTVTITKLPPGELRVTVDAGTTVTLYTLPPDALTTFTTPSAG [r5_14_JUSTAS]",
    "Measurement Unit": "kcal/mol",
    "folding stability dG unfold": 0.339
  },
  {
    "Sequence Data": "SASPALELAKEIAEKIEPLFPDISPVEVTVTPRGSTALGTIKFKRPDGKELVAKMIVSAGGDPVEIILLSAG [r14_719_JUSTAS]",
    "Measurement Unit": "kcal/mol",
    "folding stability dG unfold": 1.51
  },
  {
    "Sequence Data": "SAGGSWLPPGMWIISISIKWEMREMTFSPNGQPEMEMRLEIDIQVIKIPPPPPPPKEDAKNPNGKWSAGGSA [r2_495_TrROS]",
    "Measurement Unit": "kcal/mol",
    "folding stability dG unfold": 1.66
  },
  {
    "Sequence Data": "SANDAMRKMMENMSPEDMMEMVRPPVPPPPVVTIRVPIEDLPKFLQWLSEEFGVEIEREDGYLYITVTASAG [r14_7_TrROS]",
    "Measurement Unit": "kcal/mol",
    "folding stability dG unfold": 1.22
  },
  {
    "Sequence Data": "SAGGSAGGSAGDVPPSETVTITVSSEAEKEAIKKEHPEVNLTFTEAEPPVAFDPTSDVTASAGGSAGGSAGG [r17_126_JUSTAS]",
    "Measurement Unit": "kcal/mol",
    "folding stability dG unfold": 1.21
  },
  {
    "Sequence Data": "SAGGSAGGSAGVPDNAKIRLAFEFDGYIVLIEATPGTGFIKNIDKVEVFPVIPNTGEVTGSAGGSAGGSAGG [r11_66_TrMRF]",
    "Measurement Unit": "kcal/mol",
    "folding stability dG unfold": 1.79
  }
]

Ask: Entry SAGGSAGGSMRIKFEFKIGDKWVEEEIPADLSQLPLSEIKKKHPKAEYKIEIEDEEGNWTPLLSAGGSAGGS [r12_540_JUSTAS] needs its folding stability dG unfold filled in; supply it.
Reply: 0.767

Ask: Entry SAGGIIPIENASWDELLNALKEAAEKGDPNVTITFQDPGRPYWIQIDPDENNIEVEHPNGETWRFKISAGGS [r16_481_TrROS] needs its folding stability dG unfold filled in; supply it.
Reply: 0.905

Ask: Entry SAGGSPPPLRITYKIRMGGQPFEWTIPIPADDLPPGQQIEIDIRIKKMDPENNRMRMEIDDVEVTPSAGGSA [r2_479_TrROS] needs its folding stability dG unfold filled in; supply it.
Reply: 0.76

Ask: Entry SAGSSISSISRSPVSTEEDPSTNVRRTTYLEKYPGPPNLLKEVTVTTTFAPDGTPTVTPAVTTLSPALLSAG [r5_48_JUSTAS] needs its folding stability dG unfold filled in; supply it.
Reply: -0.717

Ask: Entry SAGGSAGGSAGGPFPFKIDSVEWETTDNKRYYEIKLEFPNGNPVTIHMPPNNPDDVKDAISAGGSAGGSAGG [r7_365_TrROS] needs its folding stability dG unfold filled in; supply it.
Reply: 0.144
